# assayed.system: UniProt P10632
# Sequence (P10632 whole entry): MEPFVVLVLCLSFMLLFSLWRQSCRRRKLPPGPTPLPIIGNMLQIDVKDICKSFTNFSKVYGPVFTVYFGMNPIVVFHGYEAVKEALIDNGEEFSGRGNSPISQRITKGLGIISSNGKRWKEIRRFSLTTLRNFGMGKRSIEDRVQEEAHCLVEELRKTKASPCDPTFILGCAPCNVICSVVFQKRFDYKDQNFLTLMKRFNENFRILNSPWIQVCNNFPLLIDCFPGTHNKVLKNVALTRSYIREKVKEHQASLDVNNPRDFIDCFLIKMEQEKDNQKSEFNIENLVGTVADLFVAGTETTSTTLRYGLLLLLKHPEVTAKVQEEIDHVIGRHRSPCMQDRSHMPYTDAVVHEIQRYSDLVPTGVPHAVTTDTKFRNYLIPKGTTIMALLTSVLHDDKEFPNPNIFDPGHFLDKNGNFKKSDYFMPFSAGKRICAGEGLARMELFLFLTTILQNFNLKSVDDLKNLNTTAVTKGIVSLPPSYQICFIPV
# assay.notes: Inhibition of CYP2C8 (unknown origin) at 10 uM relative to control
# Assay type: ADME
The reader will find reported inhibition at 10 µM values listed item by item below.

COc1ccc2ncc(F)c(C(O)C[C@H]3OC[C@H](NCc4cc5c(nn4)OCCS5)CO3)c2n1 (mixture of isomers) = > 50%

Continue with the compound presented below.
Note down inhibition at 10 µM recorded for "COc1ccc2ncc(F)c(C[C@H](O)[C@H]3OC[C@H](NCc4cc5c(nn4)OCCS5)CO3)c2n1" > 50%
